Conditions: in n-hexane, 313.15 K
recorded metric: solubility (mole fraction)

>>> print(df.to_string())
                     test_smiles  experimental_result
0  CC(=O)Nc1ccc(/C=N/NC(N)=S)cc1             2.21e-05

----------
Settings: in n-hexane, 318.15 K
recorded metric: solubility (mole fraction)

                     test_smiles             recorded_metric  experimental_result
0  CC(=O)Nc1ccc(/C=N/NC(N)=S)cc1  solubility (mole fraction)             2.93e-05
